Test system: NF-κ B activation
experiment: Inhibitory activity of NF-κB activation, luciferase reporter assay under TNF-α stimulation in HepG2
Format: cell-based, human
test context: Drug concentration at 10 μg/mL; HepG2, TNF-α 40 ng/ml, 4 hours
Can you tell me Inhibitory rate against NF-κB activation (%) for the items I'm about to list?
Numbers only, in %.

Guide cases for Inhibitory rate against NF-κB activation (%), answers given:
[[record]]
smiles_repr = "O=C(Nc1cc([N+](=O)[O-])cc([N+](=O)[O-])c1)c1cc(Br)ccc1O"
unit = "%"
measurement = 95.6

[[record]]
smiles_repr = "O=C(Nc1cc(C(F)(F)F)cc(C(F)(F)F)c1)c1cc(N=Nc2ccc([N+](=O)[O-])cc2)ccc1O"
unit = "%"
measurement = 98.7

[[record]]
smiles_repr = "O=C(Nc1cc(Cl)cc(Cl)c1)c1cc(Br)cc(Br)c1O"
unit = "%"
measurement = 95.1


For each entry beneath this line, provide reported Inhibitory rate against NF-κB activation (%).
1. O=C(Nc1cc(C(F)(F)F)cc(C(F)(F)F)c1)c1cc(-n2cccc2)ccc1O
2. O=C(Nc1cc(F)cc(F)c1)c1cc(Cl)ccc1O
3. O=C(Nc1cc(C(F)(F)F)cc(C(F)(F)F)c1)c1ccccc1O
4. CCOC(=O)c1sc(NC(=O)c2cc(Br)ccc2O)nc1-c1ccccc1
5. CCC(C)(C)c1ccc(O)c(NC(=O)c2cc(Cl)ccc2O)c1
6. O=C(Nc1cc(C(F)(F)F)ccc1[N+](=O)[O-])c1cc(Cl)ccc1O
7. CCOC(=O)c1sc(NC(=O)c2cc(-c3ccc(C(F)(F)F)cc3)ccc2O)nc1-c1ccccc1

1: 97.9; 2: 93.7; 3: 95.6; 4: 94.2; 5: 99.4; 6: 96.7; 7: 90.0

Look up Inhibitory rate against NF-κB activation (%): Cc1cc(C)cc(NC(=O)c2cc(Br)ccc2O)c1
92.6

----------
Test system: NF-κ B activation
experiment: Inhibitory activity of NF-κB activation, luciferase reporter assay under TNF-α stimulation in HepG2
Type: cell-based, human
test context: Drug concentration at 10 μg/mL; HepG2, TNF-α 40 ng/ml, 4 hours
measure: Inhibitory rate against NF-κB activation (%)
For clarity, give the value followed by its unit.

Guide cases for Inhibitory rate against NF-κB activation (%), answers given:
[[record]]
smiles_repr = "O=C(Nc1cc(C(F)(F)F)cc(C(F)(F)F)c1)c1cc(/C=C/c2ccccc2)ccc1O"
measurement = "96.9%"

[[record]]
smiles_repr = "COc1ccc(OC)c(NC(=O)c2cc(Cl)ccc2O)c1"
measurement = "96.8%"

[[record]]
smiles_repr = "COc1cc(NC(=O)c2cc(Br)ccc2O)cc(C(F)(F)F)c1"
measurement = "97.2%"


Look up Inhibitory rate against NF-κB activation (%): COc1ccc(-n2cccc2)c(NC(=O)c2cc(Cl)ccc2O)c1
98.7%

Measured values drawn from patent US20080234233A1 for this set.
